Target: T1, 4H3631-AA
T1 chain: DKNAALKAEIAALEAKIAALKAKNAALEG
Test: two-hybrid library CCmax;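 note: natural log of median RNA to DNA barcode read ratio; higher means stronger binding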
Conditions: mean of both orientations
outcome-measure: interaction score

Some entries whose results are on file:
# binder, measured-value
data = [
    ("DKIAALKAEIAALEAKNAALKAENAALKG [4H2620-AA]", -0.556),
    ("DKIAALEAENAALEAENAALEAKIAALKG [4H2198-AA]", -1.38),
    ("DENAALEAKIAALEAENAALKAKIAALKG [4H1310-AA]", -1.57),
    ("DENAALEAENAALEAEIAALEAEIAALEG [4H1153-AA]", 0.849),
]

P. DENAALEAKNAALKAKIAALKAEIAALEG [4H1513-AA]
Q. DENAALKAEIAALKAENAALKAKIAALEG [4H1629-AA]
R. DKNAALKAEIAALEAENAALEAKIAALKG [4H3606-AA]
S. DEIAALEAKIAALKAENAALEAENAALKG [4H340-AA]
Please give the order of these binders when sorted by interaction score, largest value leading. Please list the labels in the order you were asked to rank them.
P, S, R, Q
